This collection of values is drawn from ChEMBL document CHEMBL1121452.

ED50: recorded values
Species: Mus musculus
Assay: Evaluated for antagonistic activity on nicotine-induced tonic-extensor convulsions (TE) in CF1 mice
Format: functional

Some molecules with recorded ED50:
[[record]]
molecule = "Cc1nnc2n1-c1ccc(Cl)cc1C1(c3ccccc3)ON1C2 (stereo not given)"
result = "0.12 mg/kg"

[[record]]
molecule = "CCOC(=O)CC1(C(=O)OCC)N=C(c2ccccc2)c2cc(Cl)ccc2-n2c(C)nnc21 (stereo not given)"
result = "> 200 mg/kg"

[[record]]
molecule = "Cc1nnc2n1-c1ccc(Cl)cc1C(c1ccccc1)=NC2"
result = "0.02 mg/kg"

[[record]]
molecule = "CC(=O)OC1N=C(c2ccccc2)c2cc(Cl)ccc2-n2c(C)nnc21 (stereo not given)"
result = "1 mg/kg"


The recorded ED50 for `Cc1nnc2n1-c1ccc(Cl)cc1C(c1ccccc1)=[N+]([O-])C2` is 0.2 mg/kg

* * *

Species: Mus musculus
Test: Evaluated for the pentylene induced clonic convulsions (P) in CF1 mice
Format: functional
log10 ED50 values for the compounds below.
The figures below represent log10 of ED50, where ED50 is stated in mg/kg.

Here is how some compounds turned out for log10 ED50.
[[record]]
compound = "CCOC(=O)C1(C)N=C(c2ccccc2)c2cc(Cl)ccc2-n2c(C)nnc21 (stereo not given)"
experimental_readout = "log10 ED50"
result = 1.60

[[record]]
compound = "Cc1nnc2n1-c1ccc(Cl)cc1C(c1ccccc1)=NC2 [ALPRAZOLAM]"
experimental_readout = "log10 ED50"
result = -0.70

[[record]]
compound = "Cc1nnc2n1-c1ccc(Cl)cc1C(c1ccccc1)=NC2O (stereo not given) [4-HYDROXY-ALPRAZOLAM]"
experimental_readout = "log10 ED50"
result = 0.95

[[record]]
compound = "Cc1nnc2n1-c1ccc(Cl)cc1C(c1ccccc1)=NC2C (stereo not given)"
experimental_readout = "log10 ED50"
result = -1.00

[[record]]
compound = "Cc1nnc2n1-c1ccc(Cl)cc1C1(c3ccccc3)ON1C2 (stereo not given)"
experimental_readout = "log10 ED50"
result = -0.70

[[record]]
compound = "Cc1nnc2n1-c1ccc(Cl)cc1C(c1ccccc1)=NC2N (stereo not given)"
experimental_readout = "log10 ED50"
result = 0.54

[[record]]
compound = "CCOC(=O)C1(N)N=C(c2ccccc2)c2cc(Cl)ccc2-n2c(C)nnc21 (stereo not given)"
experimental_readout = "log10 ED50"
result = 1.51


Query compound follows.
Sure, the documented log10 ED50 for CC(=O)OC1N=C(c2ccccc2)c2cc(Cl)ccc2-n2c(C)nnc21 (stereo not given) is 0.95

* * *

Species on record: Mus musculus
Assay: Evaluated for the pentylene induced clonic convulsions (P) in CF1 mice
Type: functional
Experimental Readout: ED50 (mg/kg)
Lab book: enter the figure in mg/kg, no units written.

The measured ED50 associated with Cc1nnc2n1-c1ccc(Cl)cc1C(c1ccccc1)=NC2CC(=O)O (centres undefined) reads 5

Given item `Cc1nnc2n1-c1ccc(Cl)cc1C(c1ccccc1)=[N+]([O-])C2` , the value recorded as its ED50 is 1.8
